Tested on: oilseed rape (Brassica napus)
PROTOCOL TEXT: Test D pre-/postemergence plant response
Assay type: in vivo
CONDITIONS USED: Preemergence; 62 g ai/ha; scale 0 to 100 (0 no effect, 100 complete control)
Exercise: for every item that follows, state its recorded Plant response rating, Oilseed Rape.
Numbers only.

>  <COMPOUND>
Fc1cccc(Oc2ncc(Br)cn2)c1-c1cc(C(F)F)on1 [Compound 118]

>  <OBSERVATION TYPE>
Plant response rating, Oilseed Rape

>  <ASSAY VALUE>
100

$$$$
>  <COMPOUND>
FC(F)Oc1cccc(Oc2ncc(Cl)cn2)c1-c1cc(C(F)F)on1 [Compound 131]

>  <OBSERVATION TYPE>
Plant response rating, Oilseed Rape

>  <ASSAY VALUE>
85

$$$$
>  <COMPOUND>
FC(F)(Cl)c1cc(-c2ccccc2Oc2ncc(Cl)cn2)no1 [Compound 143]

>  <OBSERVATION TYPE>
Plant response rating, Oilseed Rape

>  <ASSAY VALUE>
95

$$$$
>  <COMPOUND>
Cc1cc(-c2ccccc2Oc2ncc(Cl)cn2)no1 [Compound 60]

>  <OBSERVATION TYPE>
Plant response rating, Oilseed Rape

>  <ASSAY VALUE>
90

$$$$
>  <COMPOUND>
Cc1cc(-c2ccccc2Oc2ncc(Cl)cn2)on1 [Compound 58]

>  <OBSERVATION TYPE>
Plant response rating, Oilseed Rape

>  <ASSAY VALUE>
100

$$$$

input: Lab note: need Plant response rating, Oilseed Rape for Cc1cc(-c2c(F)cccc2Oc2ncc(Cl)cn2)on1 [Compound 229] on oilseed rape (Brassica napus), anyone have it?
output: 100
